Listed here are compounds together with their documented residual activity.
molecular target: UniProt Q9UF33; test: radiometric filter-binding kinase assay, Kinase HotSpot; details: compound 0.5 µM; ATP 10 µM
Sequence (Q9UF33 whole entry, looked up): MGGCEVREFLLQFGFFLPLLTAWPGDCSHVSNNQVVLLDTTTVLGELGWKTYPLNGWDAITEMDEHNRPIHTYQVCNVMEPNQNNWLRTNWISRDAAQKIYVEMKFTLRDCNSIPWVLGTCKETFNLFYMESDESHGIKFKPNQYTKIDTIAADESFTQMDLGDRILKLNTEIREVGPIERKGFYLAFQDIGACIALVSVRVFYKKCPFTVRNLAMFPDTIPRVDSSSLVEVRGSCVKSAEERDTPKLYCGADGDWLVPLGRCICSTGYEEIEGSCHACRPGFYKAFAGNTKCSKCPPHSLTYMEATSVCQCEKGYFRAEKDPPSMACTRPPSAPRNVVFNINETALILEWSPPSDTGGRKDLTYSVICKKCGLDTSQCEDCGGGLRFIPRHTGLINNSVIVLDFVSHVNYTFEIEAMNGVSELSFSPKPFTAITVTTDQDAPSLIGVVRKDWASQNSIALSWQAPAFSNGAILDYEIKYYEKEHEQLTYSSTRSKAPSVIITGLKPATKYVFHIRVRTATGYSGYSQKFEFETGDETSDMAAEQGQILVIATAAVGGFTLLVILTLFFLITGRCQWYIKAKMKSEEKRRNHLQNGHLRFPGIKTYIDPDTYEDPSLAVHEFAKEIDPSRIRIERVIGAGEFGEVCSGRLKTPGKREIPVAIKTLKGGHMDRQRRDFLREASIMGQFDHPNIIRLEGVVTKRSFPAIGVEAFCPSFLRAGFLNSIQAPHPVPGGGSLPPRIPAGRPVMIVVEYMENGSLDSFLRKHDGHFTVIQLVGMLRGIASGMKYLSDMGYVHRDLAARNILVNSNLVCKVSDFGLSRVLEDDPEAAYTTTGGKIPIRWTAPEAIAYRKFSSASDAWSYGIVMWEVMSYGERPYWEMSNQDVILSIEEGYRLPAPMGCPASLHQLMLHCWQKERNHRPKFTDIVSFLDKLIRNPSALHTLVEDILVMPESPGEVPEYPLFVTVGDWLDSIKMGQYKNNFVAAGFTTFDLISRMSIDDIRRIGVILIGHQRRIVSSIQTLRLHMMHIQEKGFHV
Supply the numeric figure in %, leaving out any unit text.

Field request: residual activity | item: N#C/C(=C(/N)Sc1ccc(N)cc1)c1ccccc1C(F)(F)F
92.3

Continue with Nc1ncnc2[nH]nc(Nc3ccc(F)cc3)c12
49.3

Now this one: CCN(CC)CCNC(=O)c1c(C)[nH]c(/C=C2\C(=O)Nc3ccc(Cl)cc32)c1C
45.7

New cases:
Entry Nc1ccc2ncnc(NCCc3ccc(Oc4ccccc4)cc3)c2c1 has what residual activity?
92.8

Next entry: CCC(=O)Nc1ccc2ncnc(Nc3cccc(Br)c3)c2c1
79.5

Try CNC(=O)c1cc(Oc2ccc(NC(=O)Nc3ccc(Cl)c(C(F)(F)F)c3)cc2)ccn1 next.
42

Further, for CCCC(=O)Oc1ccc2[nH]c(C(=O)c3cc4ccccc4[nH]3)cc2c1 ?
88

Lookup O=C1NC(=O)c2c1c1c3ccccc3n3c1c1c2c2ccccc2n1C1CCC3O1
63.9

Data provenance: the kinase profiling compilation of Christmann-Franck et al. (2016)
